- measurementTarget: ErbB4 on neonatal rat cardiomyocytes (rat) (UniProt Q62956)
- Sequence (Q62956 26-1308): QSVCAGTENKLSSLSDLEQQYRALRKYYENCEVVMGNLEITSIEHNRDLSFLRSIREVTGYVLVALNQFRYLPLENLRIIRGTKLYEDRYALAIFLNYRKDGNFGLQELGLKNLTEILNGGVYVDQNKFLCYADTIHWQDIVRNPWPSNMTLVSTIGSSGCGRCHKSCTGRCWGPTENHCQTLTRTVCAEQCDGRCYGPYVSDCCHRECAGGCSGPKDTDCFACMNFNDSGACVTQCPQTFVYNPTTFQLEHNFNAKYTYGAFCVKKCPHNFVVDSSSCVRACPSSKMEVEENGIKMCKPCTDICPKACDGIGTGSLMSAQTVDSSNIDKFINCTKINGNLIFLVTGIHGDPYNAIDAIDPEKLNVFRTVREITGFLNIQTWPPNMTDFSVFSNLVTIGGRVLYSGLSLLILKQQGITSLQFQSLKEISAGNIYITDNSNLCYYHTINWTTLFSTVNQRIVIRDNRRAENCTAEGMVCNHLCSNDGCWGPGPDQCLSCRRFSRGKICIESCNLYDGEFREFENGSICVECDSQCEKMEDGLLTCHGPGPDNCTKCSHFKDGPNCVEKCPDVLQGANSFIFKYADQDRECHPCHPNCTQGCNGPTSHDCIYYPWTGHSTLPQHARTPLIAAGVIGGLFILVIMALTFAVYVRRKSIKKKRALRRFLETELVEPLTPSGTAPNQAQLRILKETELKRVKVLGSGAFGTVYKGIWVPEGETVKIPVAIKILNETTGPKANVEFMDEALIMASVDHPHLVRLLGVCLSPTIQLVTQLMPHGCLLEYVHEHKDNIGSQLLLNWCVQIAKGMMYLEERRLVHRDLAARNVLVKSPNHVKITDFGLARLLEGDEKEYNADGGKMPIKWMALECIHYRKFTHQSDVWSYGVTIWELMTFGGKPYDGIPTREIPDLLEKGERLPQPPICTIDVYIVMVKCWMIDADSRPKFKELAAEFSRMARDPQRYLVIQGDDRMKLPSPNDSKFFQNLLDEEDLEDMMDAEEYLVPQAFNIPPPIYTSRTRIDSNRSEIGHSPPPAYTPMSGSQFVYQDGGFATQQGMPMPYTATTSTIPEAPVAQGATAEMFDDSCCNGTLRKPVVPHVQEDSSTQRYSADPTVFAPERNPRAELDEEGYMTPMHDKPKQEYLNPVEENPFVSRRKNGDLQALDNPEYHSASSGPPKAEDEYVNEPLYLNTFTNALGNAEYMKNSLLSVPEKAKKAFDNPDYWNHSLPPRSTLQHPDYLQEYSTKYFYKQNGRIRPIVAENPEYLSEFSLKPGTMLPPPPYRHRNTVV
- procedureDetails: cell-based or functional assay
measurementName: Selectivity SC/CM

[
  {
    "binder": "huNRG1(S177-Q237)(3H5)::GG::huFcSEFL2 (Pb) (Fc fusion) SHLVKCGERHKSFCVNGGECYVVERPSIPSRFLCKCPNEFTGDRCQKDFLASFYKAEELYQGGDKTHTCPPCPAPELLGGPSVFLFPPKPKDTLMISRTPEVTCVVVDVSHEDPEVKFNWYVDGVEVHNAKTKPCEEQYGSTYRCVSVLTVLHQDWLNGKEYKCKVSNKALPAPIEKTISKAKGQPREPQVYTLPPSREEMTKNQVSLTCLVKGFYPSDIAVEWESNGQPENNYKTTPPVLDSDGSFFLYSKLTVDKSRWQQGNVFSCSVMHEALHNHYTQKSLSLSPGK",
    "measurementName": "Selectivity SC/CM",
    "observedValue": "> 7800"
  },
  {
    "binder": "huNRG1(S177-Q237)(3D6)::GG::huFcSEFL2 (Pb) (Fc fusion) SHLVKCGESDKSFCVNGGECFVIEGSSIPSRFLCKCPNEFTGDRCQDFFMASFYKAEELYQGGDKTHTCPPCPAPELLGGPSVFLFPPKPKDTLMISRTPEVTCVVVDVSHEDPEVKFNWYVDGVEVHNAKTKPCEEQYGSTYRCVSVLTVLHQDWLNGKEYKCKVSNKALPAPIEKTISKAKGQPREPQVYTLPPSREEMTKNQVSLTCLVKGFYPSDIAVEWESNGQPENNYKTTPPVLDSDGSFFLYSKLTVDKSRWQQGNVFSCSVMHEALHNHYTQKSLSLSPGK",
    "measurementName": "Selectivity SC/CM",
    "observedValue": "> 3800"
  },
  {
    "binder": "huNRG1(S177-F229)(NRGE1D) (E47S_D48S_F49E_M50L) 6xHis (ligand) SHLVKCGESHKSFCVNGGECYMVEGSSIPSRYLCKCPNEFTGDRCQSSELASFGGGGEGGGGAGGGGHHHHHH",
    "measurementName": "Selectivity SC/CM",
    "observedValue": "> 10000"
  }
]
